Record form. Attribute: melting point. Fill in for each entry.

Sample answers from the record:
[
  {
    "compound": "C#CCOc1ccc(C(C)=O)cc1",
    "melting point": "72 to 74 °C"
  },
  {
    "compound": "CC(=O)CC(=O)Nc1cccc(C)c1C",
    "melting point": "91 to 93 °C"
  },
  {
    "compound": "NC(=O)c1sc2nc(C3CC3)cc(-c3ccccc3)c2c1N",
    "melting point": "185 to 187 °C"
  },
  {
    "compound": "NNc1ncnc2c1oc1ccccc12",
    "melting point": "232 to 234 °C"
  },
  {
    "compound": "CC1Cc2ccccc2N1c1ccccc1C(=O)O (centres undefined)",
    "melting point": "124 to 126 °C"
  },
  {
    "compound": "COc1ccc(N(C(C)=O)c2nc(C=O)cs2)cc1",
    "melting point": "180 to 183 °C"
  },
  {
    "compound": "c1cc(-n2ccnc2)ccn1",
    "melting point": "104 to 106 °C"
  },
  {
    "compound": "O=C(Nc1ccc(-n2cnc3ccccc32)nc1)OCC(F)(F)F",
    "melting point": "239 to 241 °C"
  }
]

Lab note: next compound to report on.
Q. Form field: reported melting point of Cc1nn(C)c2sc(C(=O)NC(C)C(=O)O)cc12 (centres undefined)
A. 269 to 271 °C
